subject of test: CBP (Homo sapiens (Human))
Sequence (Q92793 1085-1192): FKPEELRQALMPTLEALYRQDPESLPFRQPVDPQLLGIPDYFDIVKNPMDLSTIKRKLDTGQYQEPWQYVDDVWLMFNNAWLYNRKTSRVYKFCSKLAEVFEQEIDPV
test details: HTRF biochemical assay for CBP activity (TR-FRET, bromodomain)
Type: binding
condition: geometric mean, 10-point 3-fold dilution 33 μM to 1.7 nM, read-out: BROMO IC50 TRF TB CBP (μM gmean)
measurement type: IC50

molecule | IC50
COC(=O)N1CCc2ccc3c(nc([C@H]4CC[C@H](C(=O)O)CC4)n3[C@H](C)Cc3ccccc3Cl)c2C1 [Compound 295] | 0.1 to 1 µM
COC(=O)N1CCc2c(Cl)cc3c(nc([C@H]4CC[C@H](C(=O)O)CC4)n3[C@@H](C)Cc3ccccc3)c2C1 [Compound 81] | 0.001 to 0.01 µM
COC(=O)N1CCc2ccc3c(nc([C@H]4CC[C@@H](S(=O)(=O)NC(C)=O)CC4)n3[C@H](C)Cc3ccccc3)c2C1 [Compound 162] | 0.001 to 0.01 µM
COC(=O)N1CCc2ccc3c(nc([C@H]4CC[C@H](C(=O)O)CC4)n3[C@H](C)Cc3ccccc3)c2C1 [Compound 312] | 0.1 to 1 µM
COC(=O)N1CCc2ccc3c(nc(-c4ccccn4)n3[C@H](C)Cc3ccccc3)c2C1 [Compound 304] | 0.1 to 1 µM

**Query** Item COC(=O)N1CCc2ccc3c(nc(N4CCN(C(=O)C5COC5)CC4)n3[C@@H](C)Cc3ccccc3)c2C1 [Compound 337] has what recorded IC50?
**Result** 0.1 to 1 µM

**Query** Next entry: COC(=O)N1CCc2ccc3c(nc([C@@H]4CCCOC4)n3C[C@H](C(=O)O)c3ccccc3)c2C1 [Compound 257]
**Result** 0.01 to 0.1 µM

**Query** Next entry: COC(=O)N1CCc2ccc3c(nc(C4CS(=O)(=O)C4)n3CCc3ccccc3)c2C1 [Compound 342]
**Result** 0.1 to 1 µM

**Query** Next entry: COC(=O)N1CCc2ccc3c(nc(N4CCN(S(C)(=O)=O)CC4)n3[C@H](C)Cn3cc(Cl)cn3)c2C1 [Compound 343]
**Result** 0.1 to 1 µM

**Query** Next entry: COC(=O)N1CCc2ccc3c(nc(C4CCCCC4)n3C[C@@H](CC(=O)O)c3cc(F)cc(F)c3)c2C1 [Compound 76]
**Result** 0.001 to 0.01 µM

**Query** Next entry: COC(=O)N1Cc2c(ccc3c2nc(C2CCCCC2)n3Cc2ccccc2)CC1C (stereo not drawn) [Compound 328]
**Result** 0.1 to 1 µM

**Query** Next entry: COC(=O)N1CCc2ccc3c(nc([C@H]4CC[C@H](C(=O)O)CC4)n3[C@H](C)C(F)(F)c3ccccc3)c2C1 [Compound 125]
**Result** 0.001 to 0.01 µM

**Query** Next entry: COC(=O)N1CCc2ccc3c(nc(C4CCCCC4)n3CC[C@H]3CCCC[C@@H]3C(=O)O)c2C1 [Compound 252]
**Result** 0.01 to 0.1 µM

**Query** Next entry: COC(=O)N1CCc2ccc3c(nc(N4CCCCC4)n3C[C@@H](CC(=O)O)c3ccccc3)c2C1 [Compound 47]
**Result** 0.001 to 0.01 µM

**Query** Next entry: COC(=O)N1CCc2ccc3c(nc(C4CCCCC4)n3C[C@@H](CC(=O)O)c3cc(F)cc(OC)c3)c2C1 [Compound 35]
**Result** 0.001 to 0.01 µM
